Listed compounds paired with reported IC50
# ASSAY_TARGET: mutant ALS protein (Oryza sativa subsp. japonica, UniProt Q6K2E8, S627I/W548L)
# Sequence (Q6K2E8 44-644 W548L/S627I): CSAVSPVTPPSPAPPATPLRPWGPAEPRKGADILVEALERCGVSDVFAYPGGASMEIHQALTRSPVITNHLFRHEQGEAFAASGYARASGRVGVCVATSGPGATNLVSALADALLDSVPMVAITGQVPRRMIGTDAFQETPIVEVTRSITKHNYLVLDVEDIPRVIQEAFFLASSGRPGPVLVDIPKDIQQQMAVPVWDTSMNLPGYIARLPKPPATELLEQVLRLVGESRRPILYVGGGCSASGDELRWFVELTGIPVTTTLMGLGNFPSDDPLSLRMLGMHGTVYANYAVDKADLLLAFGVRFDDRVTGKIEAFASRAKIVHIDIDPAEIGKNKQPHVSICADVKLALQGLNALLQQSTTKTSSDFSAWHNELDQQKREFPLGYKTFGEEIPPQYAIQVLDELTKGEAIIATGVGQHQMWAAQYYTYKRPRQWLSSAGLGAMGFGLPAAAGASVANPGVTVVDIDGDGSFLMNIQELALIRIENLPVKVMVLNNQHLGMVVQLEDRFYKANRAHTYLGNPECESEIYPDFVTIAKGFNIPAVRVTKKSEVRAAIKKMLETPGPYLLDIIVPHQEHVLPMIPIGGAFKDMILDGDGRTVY
# PROTOCOL_NOTES: Herbicide sensitivity of ALS partially purified from the resistant mutant (acetoin colorimetric ALS activity)

>  <COMPOUND>
COc1cc(OC)nc(Oc2cccc(Oc3nc(OC)cc(OC)n3)c2C(=O)[O-])n1.[Na+] [Bispyribac-sodium, bispyribac-sodium]

>  <ASSAY_TARGET>
mutant ALS protein (Oryza sativa subsp. japonica, UniProt Q6K2E8, S627I/W548L)

>  <MEASUREMENT_UNITS>
nM

>  <IC50>
421

$$$$
>  <COMPOUND>
CC(C)C1(C)N=C(c2nc3ccccc3cc2C(=O)O)NC1=O (stereo not drawn) [Imazaquin, imazaquin]

>  <ASSAY_TARGET>
mutant ALS protein (Oryza sativa subsp. japonica, UniProt Q6K2E8, S627I/W548L)

>  <MEASUREMENT_UNITS>
nM

>  <IC50>
16700

$$$$
>  <COMPOUND>
COc1nc(C)nc(NC(=O)NS(=O)(=O)c2ccccc2Cl)n1 [Chlorsulfuron, chlorsulfuron]

>  <ASSAY_TARGET>
mutant ALS protein (Oryza sativa subsp. japonica, UniProt Q6K2E8, S627I/W548L)

>  <MEASUREMENT_UNITS>
nM

>  <IC50>
92.8

$$$$

The reported measurements were obtained from patent US7119256B2.
